Assay: Volume of distribution in rat at 1 mg/kg, iv and 10 mg/kg, po
Assay type: ADME, organism-based
Details: in vivo, read-out: Vdss
propertyMeasured: Vd (L/kg)
Provide only the numeric value, understood in L/kg.

Quick one: Vd for `O=C(Nc1nc(C(F)(F)F)co1)C1c2cccc(F)c2Oc2c(F)cccc21` ?
0.43

---

Target: Metabotropic glutamate receptor 1 (Rattus norvegicus) (UniProt P23385)
Sequence (P23385 19-1199 limits assumed): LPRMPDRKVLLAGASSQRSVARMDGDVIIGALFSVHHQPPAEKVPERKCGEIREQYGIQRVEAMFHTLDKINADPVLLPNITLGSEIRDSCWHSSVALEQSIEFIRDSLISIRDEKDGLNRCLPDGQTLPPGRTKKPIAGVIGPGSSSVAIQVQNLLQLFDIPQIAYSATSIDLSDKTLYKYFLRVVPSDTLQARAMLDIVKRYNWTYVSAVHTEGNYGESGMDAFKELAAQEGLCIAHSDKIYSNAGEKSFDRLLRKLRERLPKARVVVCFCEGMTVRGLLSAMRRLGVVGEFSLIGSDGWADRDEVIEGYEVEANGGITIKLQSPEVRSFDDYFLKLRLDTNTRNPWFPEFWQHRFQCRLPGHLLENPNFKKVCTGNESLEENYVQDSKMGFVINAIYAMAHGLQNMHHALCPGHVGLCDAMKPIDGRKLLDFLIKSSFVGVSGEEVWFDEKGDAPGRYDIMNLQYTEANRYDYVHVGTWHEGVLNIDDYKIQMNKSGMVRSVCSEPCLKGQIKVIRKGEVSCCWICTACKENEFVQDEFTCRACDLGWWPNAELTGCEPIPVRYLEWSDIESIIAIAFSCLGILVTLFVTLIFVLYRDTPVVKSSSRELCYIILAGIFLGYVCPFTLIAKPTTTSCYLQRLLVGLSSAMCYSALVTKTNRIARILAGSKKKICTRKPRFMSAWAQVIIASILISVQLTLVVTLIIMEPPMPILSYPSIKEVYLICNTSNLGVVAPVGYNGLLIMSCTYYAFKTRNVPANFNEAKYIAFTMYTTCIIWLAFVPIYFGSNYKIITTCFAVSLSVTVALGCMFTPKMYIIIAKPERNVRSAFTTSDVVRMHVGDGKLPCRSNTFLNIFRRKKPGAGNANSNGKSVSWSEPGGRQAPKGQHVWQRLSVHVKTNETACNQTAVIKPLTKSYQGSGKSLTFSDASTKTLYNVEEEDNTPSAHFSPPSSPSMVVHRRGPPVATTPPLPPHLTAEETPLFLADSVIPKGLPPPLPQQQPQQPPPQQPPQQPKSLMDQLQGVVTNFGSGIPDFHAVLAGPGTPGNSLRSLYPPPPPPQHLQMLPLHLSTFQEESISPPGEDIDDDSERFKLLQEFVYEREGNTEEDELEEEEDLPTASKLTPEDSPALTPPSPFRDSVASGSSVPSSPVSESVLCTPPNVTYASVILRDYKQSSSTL
Experiment: Agonist activity at rat mGlu1 receptor expressed in HEK293 cells assessed as increase in intracellular calcium by FLIPR assay relative to control
Assay type: functional, cell-based
Design: concentration or dose not given beside the values
API: label(entry) gives Met if the entry's Activity is strictly smaller than 60%; on equality or larger values it gives Not met.

Example entries begin here.
# compound, label
measured = [
    ("O=C(Nc1ncc(C(F)(F)F)o1)C1c2cccc(F)c2Oc2c(F)cccc21", "Met"),
    ("O=C(Nc1ncc(C(F)(F)F)o1)C1c2ccccc2Oc2c(F)cccc21 (racemic)", "Met"),
    ("O=C(Nc1nc(C(F)(F)F)co1)C1c2ccccc2Oc2cc(F)ccc21 (racemic)", "Met"),
]

Identify whether the compound O=C(Nc1nc(C(F)(F)F)co1)C1c2ccccc2Oc2ccc(F)cc21 (racemic) records Activity below 60%.
Not met

Identify whether the compound O=C(Nc1nc(C(F)(F)F)co1)C1c2ccccc2Oc2c(F)cccc21 (racemic) records Activity below 60%.
Not met

Identify whether the compound `Cc1nc(NC(=O)C2c3ccccc3Oc3ccccc32)no1` records Activity below 60%.
Not met

Identify whether the compound O=C(Nc1ncc(C(F)(F)F)o1)C1c2ccccc2Oc2ccc(F)cc21 (racemic) records Activity below 60%.
Met

---

Target: Metabotropic glutamate receptor 1 (Rattus norvegicus) (UniProt P23385)
Experiment: Agonist activity at rat mGlu1 receptor expressed in CHO cells assessed as […] of glutamate-activated K+ currents by electrophysiology relative to glutamate
Type: functional, cell-based
Design: concentration or dose not given beside the values
API: label(entry) gives fulfilled if the entry's Activity is strictly smaller than 1000%; on equality or larger values it gives not fulfilled.

Example entries begin here.
# molecule, subjectOfTest, label
data = [
    ("O=C(Nc1nc(C(F)(F)F)co1)C1c2cccc(F)c2Oc2c(F)cccc21", "Metabotropic glutamate receptor 1 (Rattus norvegicus) (UniProt P23385)", "fulfilled"),
    ("O=C(Nc1ncc(C(F)(F)F)o1)C1c2ccccc2Oc2ccc(F)cc21 (racemic)", "Metabotropic glutamate receptor 1 (Rattus norvegicus) (UniProt P23385)", "not fulfilled"),
    ("O=C(Nc1ncc(C(F)(F)F)o1)C1c2ccccc2Oc2c(F)cccc21 (racemic)", "Metabotropic glutamate receptor 1 (Rattus norvegicus) (UniProt P23385)", "fulfilled"),
    ("O=C(Nc1nc(C(F)(F)F)co1)C1c2ccccc2Oc2c(F)cccc21 (racemic)", "Metabotropic glutamate receptor 1 (Rattus norvegicus) (UniProt P23385)", "not fulfilled"),
    ("O=C(Nc1nc(C(F)(F)F)co1)C1c2cc(F)ccc2Oc2ccc(F)cc21", "Metabotropic glutamate receptor 1 (Rattus norvegicus) (UniProt P23385)", "fulfilled"),
    ("O=C(Nc1nc(C(F)(F)F)co1)C1c2ccccc2Oc2ccccc21", "Metabotropic glutamate receptor 1 (Rattus norvegicus) (UniProt P23385)", "not fulfilled"),
    ("O=C(Nc1ncc(C(F)(F)F)o1)C1c2cccc(F)c2Oc2c(F)cccc21", "Metabotropic glutamate receptor 1 (Rattus norvegicus) (UniProt P23385)", "fulfilled"),
    ("O=C(Nc1nc(C(F)(F)F)co1)C1c2ccccc2Oc2cc(F)ccc21 (racemic)", "Metabotropic glutamate receptor 1 (Rattus norvegicus) (UniProt P23385)", "fulfilled"),
]

Shift focus to the following entry.
Identify whether the molecule `O=C(Nc1ncc(C(F)(F)F)o1)C1c2ccccc2Oc2ccccc21` records Activity below 1000%.
not fulfilled
